# Study Target: T1, human OX40 protein (Sino Biological, Cat. 10481-H08H) (human, UniProt P43489 29-216)
# T1 construct: Bought recombinant protein; also called CD134; TNFRSF4
# T1 sequence (looked up): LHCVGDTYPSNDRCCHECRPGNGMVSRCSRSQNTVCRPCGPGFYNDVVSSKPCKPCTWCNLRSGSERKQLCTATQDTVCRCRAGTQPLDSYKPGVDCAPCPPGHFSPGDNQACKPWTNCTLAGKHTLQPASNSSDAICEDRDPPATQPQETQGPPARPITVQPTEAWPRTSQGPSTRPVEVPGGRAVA
# Experiment Description: SPR (BIACORE T200), antibody captured on protein A chip, human OX40 as analyte, 1:1 model
Items are presented alongside their recorded Kd.

Binder: O212 (antibody, V domains shown, also called O212 antibody) VH: EVQLLESGGGLVQPGGSLRLSCAASGFTFSDYAMSWVRQAPGKGLEWVSWIYYDSGSKYYADSVKGRFTISRDNSKNTLYLQMNSLRAEDTAVYYCAKGPGPNGQLAFDYWGQGTLVTVSS VL: QSVLTQPPSASGTPGQRVTISCTGSSSNIGSNSVSWYQQLPGTAPKLLIYANSHRPSGVPDRFSGSKSGTSASLAISGLRSEDEADYYCGAWDYSLSGYVFGGGTKLTVLG
Kd / nM: 24.4
//
Binder: O35 (antibody, V domains shown) VH: EVQLLESGGGLVQPGGSLRLSCAASGFTFSDYSMSWVRQAPGKGLEWVSAISSDGGSTYYADSVKGRFTISRDNSKNTLYLQMNSLRAEDTAVYYCARRWQTFDYWGQGTLVTVSS VL: QSVLTQPPSASGTPGQRVTISCTGSSSNIGSNAVSWYQQLPGTAPKLLIYHDSHPPSGVPDRFSGSKSGTSASLAISGLRSEDEADYYCGAWDSSLSGYVFGGGTKLTVLG
Kd / nM: 19.9
//
Binder: O31C (antibody, human IgG1, lambda, V domains shown) VH: EVQLLESGGGLVQPGGSLRLSCAASGFTFSDYDMSWVRQAPGKGLEWVSSISPSSGSIYYADSVKGRFTISRDNSKNTLYLQMNSLRAEDTAVYYCAKDSIWCTNSRCYYDNAMDVWGQGTLVTVSS VL: QSVLTQPPSASGTPGQRVTISCSGSSSNIGNNAVSWYQQLPGTAPKLLIYSDSNRPSGVPDRFSGSKSGTSASLAISGLRSEDEADYYCGSWDYSLSAYVFGGGTKLTVLG
Kd / nM: 122
